Target or system Polyunsaturated fatty acid 5-lipoxygenase (Homo sapiens, UniProt P09917): recorded pIC50 listed per item.
pIC50: −log10 of the molar value.
test_readout: pIC50

| smiles_string | measured |
| --- | --- |
| O=[N+]([O-])c1ccc2c(c1)S(=O)(=O)N=C2Nc1ccccc1 | 5.07 |

[P] COc1ccc(NC2=NS(=O)(=O)c3cc([N+](=O)[O-])ccc32)cc1
[Q] O=[N+]([O-])c1ccc2c(c1)S(=O)(=O)N=C2Nc1cccc(Br)c1
Query string: Consider P and Q . Which of these has its pIC50 at a higher number? Mark your answer with the label of the selected entry.
Result string: Q

Reference source: ChEMBL document CHEMBL3286363
